# assay notes: Cellular viability of LC-1/SQSF cells after incubation with PI3K inhibitors
# reported conditions: human, LC-1/SQSF cells stably expressing hNQO1-ARE-luc
property measured: viability at 24 h

# compound, property measured, result
measured = [
    ("O=c1cc(N2CCOCC2)oc2c(-c3ccccc3)cccc12 [LY 294002]", "viability at 24 h", "> 90%"),
    ("Nc1cc(C(F)(F)F)c(-c2cc(N3CCOCC3)nc(N3CCOCC3)n2)cn1 [NVP-BKM120]", "viability at 24 h", "> 90%"),
]
